# Test system: HEK-293T
# Assay Method Text: Multiplex assay against HEK293T
# Format: toxicity, cell-based
# Condition Description: human, 24 h, 10 µM, compound concentration 10 uM, replicate 1
Below: a set of entries, each annotated with reported Population Fragmented Nuclei (%).
Observed Property: Population Fragmented Nuclei (%)

>>> observed_result("CC1=C(C(=O)Nc2cc3cn[nH]c3cc2F)C(c2ccc(C(F)(F)F)cc2)CC(=O)N1 (stereo not drawn)")
"15%"
>>> observed_result("COC(=O)C1=C(C)NC(C)=C(C(=O)OCCCN2CCC(c3ccccc3)(c3ccccc3)CC2)[C@H]1c1cccc([N+](=O)[O-])c1")
"20%"
>>> observed_result("C=CC(=O)Nc1ccc2[nH]c(=O)n(C3CCN(Cc4ccc(-c5nc6cc[nH]c(=O)c6cc5-c5ccccc5)cc4)CC3)c2c1")
"15%"
>>> observed_result("Cl.O=C(O)c1cc(-c2ccc(C3CCNCC3)cc2)c2ccc(-c3ccc(C(F)(F)F)cc3)cc2c1")
"20%"
>>> observed_result("C=CC(=O)Nc1cccc(Sc2nc(Nc3ccc(N4CCN(C)CC4)cc3)ncc2Cl)c1")
"18%"
>>> observed_result("C[C@]12CC[C@@H]3c4ccc(O)cc4CC[C@H]3[C@@H]1CC[C@@H]2O")
"11%"
>>> observed_result("CN1CCN(Cc2ccc(Nc3ncc(Cl)c(Nc4ccccc4S(=O)(=O)N(C)C)n3)cc2)CC1")
"15%"
>>> observed_result("CC(C)(C)NC[C@H](O)COc1nsnc1N1CCOCC1")
"6%"
>>> observed_result("CC(C)CC(=O)Nc1[nH]nc2c1CN(C(=O)C1CCN(C)CC1)C2(C)C")
"13%"
>>> observed_result("CC(C)NC(=O)N1CC[C@H](NC2=Nc3cc(F)ccc3N(CC(F)F)c3ccc(Cl)cc32)C1")
"17%"
>>> observed_result("COc1ccc(-c2ccc3ncc4c(c3c2)n(-c2ccc(N3CCNCC3)c(C(F)(F)F)c2)c(=O)n4C)cn1.O=C(O)/C=C\\C(=O)O")
"38%"
>>> observed_result("CCc1ccc(OCc2ccccc2C(=O)Nc2ccc3nc(C)cc(N)c3c2)cc1.Cl")
"20%"
>>> observed_result("CC(C)OC(=O)N1CCC(Oc2ncnc3c2cnn3-c2ccc(S(C)(=O)=O)cc2F)CC1")
"13%"
